For each entry below, report its Ki value.
# TARGET DESC: adenosine A2a receptor (Homo sapiens)
# Construct: purchased Receptor Biology Inc
# Sequence (P29274 whole entry): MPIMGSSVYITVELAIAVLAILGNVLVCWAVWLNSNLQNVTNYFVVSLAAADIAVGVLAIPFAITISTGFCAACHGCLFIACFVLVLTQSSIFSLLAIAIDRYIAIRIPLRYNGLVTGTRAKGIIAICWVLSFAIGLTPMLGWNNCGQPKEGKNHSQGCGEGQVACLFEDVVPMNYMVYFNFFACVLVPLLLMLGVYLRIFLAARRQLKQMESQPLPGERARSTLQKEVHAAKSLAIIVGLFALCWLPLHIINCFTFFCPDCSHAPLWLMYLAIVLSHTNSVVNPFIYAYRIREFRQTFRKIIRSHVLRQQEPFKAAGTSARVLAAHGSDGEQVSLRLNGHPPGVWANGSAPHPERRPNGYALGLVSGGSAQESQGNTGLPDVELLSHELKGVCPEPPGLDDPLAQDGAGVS
# ASSAY: Measurement of the ability to bind to adenosine A2a receptor (3H-CGS21680 binding inhibition)
# MEASUREMENT CONTEXT: A2a receptor membrane sample, 3H-CGS21680, Cheng-Prusoff
Answers are plain numbers, in nM.

{"COMPOUND": "N#Cc1cc(-c2ccncc2)c(-c2ccco2)nc1N [Example 1]", "NUMERIC RESULT": 23}

Below: the item to evaluate.
-- ask Ki for CCn1cc(-c2cc(C#N)c(N)nc2-c2ccco2)ccc1=O [Example 5] ?
-- reply 7

====

# TARGET DESC: human adenosine A2b receptor (Homo sapiens, UniProt P29275)
# Construct: expressed in transfected cells; host or cells: CHOK1 cells
# Sequence (P29275 whole entry): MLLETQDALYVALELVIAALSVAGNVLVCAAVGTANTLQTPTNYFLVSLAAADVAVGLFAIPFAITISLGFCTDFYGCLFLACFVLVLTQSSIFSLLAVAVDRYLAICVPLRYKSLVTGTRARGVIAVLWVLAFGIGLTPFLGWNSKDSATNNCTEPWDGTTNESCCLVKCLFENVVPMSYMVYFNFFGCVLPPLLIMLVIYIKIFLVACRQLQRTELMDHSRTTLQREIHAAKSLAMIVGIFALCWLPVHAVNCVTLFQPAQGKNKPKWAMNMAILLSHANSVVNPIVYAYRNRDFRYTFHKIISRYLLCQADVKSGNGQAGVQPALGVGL
# ASSAY: Inhibition of NECA-stimulated production of cAMP in adenosine A2b receptor-expressing cells
# Type: cell-based
# MEASUREMENT CONTEXT: CHOK1 cells expressing human A2b receptor, 30 nM NECA
METRIC: IC50 (nM)
Give bare numbers, in nM.

{"RECORD SMILES": "CCn1cc(-c2cc(C#N)c(N)nc2-c2ccco2)ccc1=O", "IC50 (nM)": 6.5}

-- ask Any idea what its IC50 is? The compound is "N#Cc1cc(-c2ccncc2)c(-c2ccco2)nc1N"
-- reply 2.7
